Entry source: PubChem BioAssay AID624330

Below, each entry is listed alongside its reported inhibition.
Molecular target: Rac GTPase-activating protein 1 (Homo sapiens)
Assay: blockers of MgcRacGAP-driven Rac1 GTP hydrolysis – biochemical, ADP Hunter fluorescence, primary and confirmatory, confirmation (AID 624330);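 note: fluorescence reports GDP produced by GAP-driven GTP hydrolysis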
Conditions: MgcRacGAP-stimulated Rac1 GTP hydrolysis, at 30 µM, stronger effect = higher value, GST-tagged Rac1 F28L mutant substrate
In all, about 340,000 compounds went through this assay and about 2,100 (0.62%) were called active. Only a sample is shown. Entries with a potency or affinity are not part of this list.
Give the number; % is assumed, so skip it.

Below, 4 compounds whose answers are already recorded.
compound	experimentalValue
NS(=O)(=O)c1ccc(CCNC(=O)CN2CCC(Cc3ccccc3)CC2)cc1	6.03
NS(=O)(=O)c1ccc(NC(=S)N2CCC(Cc3ccccc3)CC2)cc1	18.2
CCC(=O)Nc1nnc(S(=O)(=O)N(CC)c2cc(C)cc(C)c2)s1	3.75
CNC(=S)N1N=C(c2ccc(C)cc2)CC1c1ccc(OC)c(OC)c1 (stereo unspecified)	2.99

What reported inhibition corresponds to CCOC(=O)C1(C)C=C(Nc2ccc(C)cc2)C(=O)N1c1ccc(C)cc1 (stereo unspecified) on Rac GTPase-activating protein 1 (Homo sapiens)?
1.9

Look up inhibition with Rac GTPase-activating protein 1 (Homo sapiens) for this compound: "CC1(C)CC(=S)Nc2ccccc2S1"
2.74

Query inhibition on Rac GTPase-activating protein 1 (Homo sapiens) for "Cc1ccc(-c2nn(-c3ccccc3)cc2C(=O)Nc2ccc(C)c(S(=O)(=O)N3CCOCC3)c2)cc1"
-2.39

Kindly state the measured inhibition obtained for "O=C(NN=Cc1cc([N+](=O)[O-])ccc1O)c1cccc2ccccc12" with Rac GTPase-activating protein 1 (Homo sapiens).
4.07

Which measured inhibition belongs to "CC1(C)CNc2cc([N+](=O)[O-])ccc2S1" , tested on Rac GTPase-activating protein 1 (Homo sapiens)?
9.53

What reported inhibition corresponds to O=C(NC1=NCCS1)C1CC(=O)N(c2ccc(F)cc2)C1 (stereo unspecified) on Rac GTPase-activating protein 1 (Homo sapiens)?
3.19

Item COc1ccc(NC(=O)NNC(=O)C(C)Oc2ccc3ccccc3c2)cc1OC (stereo unspecified) with Rac GTPase-activating protein 1 (Homo sapiens) - inhibition?
12.5
